Target: T1, hHER3 full length (human, UniProt P21860 20-1342)
T1 construct: On transfected CHO, CHO HER2/HER3, CHO EGFR/HER3 or CHO Flp-In cells; endogenous HER3 of MCF-7 and MDA-MB468 cells in the signalling assays; also called human HER3
Assay: FACS, 400 nM, competitor 23F05-biotin
List of % competition values.
# number only, unit % dropped from output

Known % competition results, listed for orientation:
[[record]]
binder = "18G11 (VHH, c-myc, His6-tagged form as expressed; also called HER3MS18G11; HER3MS018G11) VHH: EVQLVESGGGLVQPGGSLRLSCAASGTLFKINAMGWYRQAPGKRRELVALITSSDTTDYAESVEGRFTISRDNTWNAVYLQMNSLKPEDTAVYYCHSDHYSMGVPEKRVIMYGQGTQVTVSS"
observed_property = "% competition"
assay_result = 0

[[record]]
binder = "18B05 (VHH) VHH: EVQLVESGGGLVQAGGSLRLSCAASGLTFGSAPMGWYRQAPGKERELVAYISGDERIWYGDSVKGRFTISRDTTKNTLYLQMNSLKPEDTAVYYCVSDVKVRHWGQGTQVTVSS"
observed_property = "% competition"
assay_result = 0

[[record]]
binder = "21F06 (VHH, c-myc, His6-tagged form as expressed; also called 21F6; HER3MS21F06) VHH: EVQLVESGGGLVQAGGSLRLSCAASGRTYYLNAMGWFRQGPGKDREFVAAIDWSDGNKDYADSVKGRFTISRDNAKNTVYLQMNSLKPEDTAVYYCAADTPPWGPMIYIESYDSWGQGTQVTVSS"
observed_property = "% competition"
assay_result = 100

[[record]]
binder = "18F05 (VHH, also called 18F5) VHH: EVQLVESGGGLVQPGGSLRLSCVASGFTFSSYWMYWVRQAPGKGVEWVSAISPGGVERYTDSVKGRFTISRDNAKNTLYLQMNSLKSEDTAMYYCARLTSFATPESQGTQVTVSS"
observed_property = "% competition"
assay_result = 0

[[record]]
binder = "17E08 (VHH) VHH: EVQLVESGGGLVQPGGSLRLSCSASGSIFGLNAMGWYRQTPGKERELVAGITSITRVGSTRYADSAKGRFTISGDYAKNTVYLQMNSLKPEDTGVYYCRMSIVKSGGADYWGQGTQVTVSS"
observed_property = "% competition"
assay_result = 0

[[record]]
binder = "05A09 (VHH) VHH: EVQLVESGGGLVQAGGSLRLSCAASGFTFDDYAIGWFRQAPGKEREGVSCISSSDGSTVYADSVKGRFTISSDNAKNTVYLQMNSLKPEDTAVYYCAAERRRGYSDLCRFYYGMDYWGKGTQVTVSS"
observed_property = "% competition"
assay_result = 10


Find the recorded % competition belonging to 04C07 (VHH, also called HER3MS04C07; HER3MS004C07) VHH: EVQLVESGGGLVQAGGSLRLSCAASGFTFSSYPMSWVRQAPGKGPAWVSTVSPGGITTSYADSVKGRFTISRDNAKNTLYLQMNSLKPEDTAVYYCLRDLNNRGQGTQVTVSS and report it. 0

Again, but for 23F05 (VHH) VHH: EVQLVESGGGLVQAGGSLRLSCAASGFTFDGYAIGWFRQAPGKEREGVSCISGGDGRSYYADSVKGRFTVSSDNAKNTLYLEMNSLKPEDTAVYYCAVIWGPYCSDSYEYLYEYDYWGQGTQVTVSS 100

Each recorded value in this set is attributed to patent US20130136748A1.
